Entries annotated with measured EC50
biological target: Glycogen synthase kinase-3 beta (Homo sapiens); test: concentration-response blocking of human GSK3B – biochemical, luminescence, cell-free homogeneous, retest, dose response (AID 434954)
Sequence (P49841 whole entry): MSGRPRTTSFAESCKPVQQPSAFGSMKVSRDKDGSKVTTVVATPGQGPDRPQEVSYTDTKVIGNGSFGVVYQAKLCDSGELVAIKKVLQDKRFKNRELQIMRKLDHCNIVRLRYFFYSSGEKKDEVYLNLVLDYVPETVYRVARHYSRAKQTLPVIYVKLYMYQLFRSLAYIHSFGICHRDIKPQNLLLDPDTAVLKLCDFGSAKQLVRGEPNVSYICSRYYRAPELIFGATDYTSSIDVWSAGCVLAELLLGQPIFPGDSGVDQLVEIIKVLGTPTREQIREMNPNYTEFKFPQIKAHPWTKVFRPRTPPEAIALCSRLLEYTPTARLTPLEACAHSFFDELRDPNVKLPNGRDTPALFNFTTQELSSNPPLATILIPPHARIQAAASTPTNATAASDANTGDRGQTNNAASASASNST

Answered cases to consult:
Clc1ccc(-c2nnc(-c3ccccc3)c(N3CCSCC3)n2)cc1; > 300 µM
Cc1cc(C)c(NC(=O)c2ccc(S(=O)(=O)N3CCOCC3)cc2)c(C)c1; > 300 µM
O=[N+]([O-])c1ccccc1[CH+][N-]n1c(C2CCCCC2)n[nH]c1=S; 155 µM

GET /values?readout=EC50&system=Glycogen synthase kinase-3 beta (Homo sapiens)&item= `CCN1CCN(C(=O)c2cc3cc4cc(OC)ccc4nc3s2)CC1`
> 300 µM

For Glycogen synthase kinase-3 beta (Homo sapiens), provide EC50 of COc1ccc(OC)c(C(O)c2coc3ccc(O)c(CN(C)C)c23)c1 (stereo not given) please.
> 300 µM

----------
pEC50 for assorted molecules
molecular target: Glycogen synthase kinase-3 beta (Homo sapiens); test: concentration-response blocking of human GSK3B – biochemical, luminescence, cell-free homogeneous, retest, dose response (AID 434954)
pEC50: −log10 of the molar value.

Consider the reported pEC50 for these molecules:
O=C(CCc1ccccc1)Nc1ccc2c(c1)OCCO2; < 3.52
Cc1ccc(Nc2nc(N)c([N+](=O)[O-])c(NCc3ccco3)n2)cc1; 5.04
N#Cc1c2n(c3c(=O)[nH]cnc13)CCCC2; 4.25

Now, please, on to the next molecule.
Item `CC(=O)Nc1ccc(C(=O)OCCCOC(=O)c2ccc(NC(C)=O)cc2)cc1` has what recorded pEC50?
< 3.52

----------
Each record here notes measured pEC50.
biological target: UniProt P49841; test: concentration-response blocking of human GSK3B – biochemical, luminescence, cell-free homogeneous, retest, dose response (AID 434954)
pEC50: −log10 of the molar value.

See these solved cases before continuing.
COc1cc(C(=O)OCC(=O)NC(N)=O)cc(CN2C(=O)c3ccccc3C2=O)c1OC; < 3.52
CCCC1=Nc2ncnn2C(c2cccs2)C1C(=O)OCC (stereo unspecified); 4.64
Cc1nonc1-c1nnc(-c2nonc2N)[nH]1; 4.53
COc1ccccc1-c1cc2ccccc2[nH]1; < 3.52
O=C(Nc1ccccn1)C(=O)Nc1ccccn1 [N,N'-dipyridin-2-ylethanediamide]; < 3.52
CN(C)c1nc(N)c([N+](=O)[O-])c(NCC2CCCO2)n1 (stereo unspecified); < 3.52
Nc1nc(NCCOCCO)nc(NCC2CCCO2)c1[N+](=O)[O-] (stereo unspecified); 4.78
CCCCCOC(=O)C1C(C)=Nc2ncnn2C1c1cccs1 (stereo unspecified); < 3.52

Give pEC50 (UniProt P49841) of the following compound: `CCc1nn(CC(=O)NCCC(C)C)c(=O)c2cc3c(OC)cccc3n12`
< 3.52

Give recorded pEC50 with UniProt P49841 for the following compound: `N#Cc1cccc(-c2nnc(SCc3ccccc3C#N)o2)c1`
< 3.52

Hi! What's the reported pEC50 for `CCNc1nc(N)c(C(=O)C23CC4CC(CC(C4)C2)C3)s1` on UniProt P49841?
< 3.52

What value of pEC50 on UniProt P49841 does `Nc1nonc1-n1nnc(C(=O)NN=Cc2ccc(Cl)cc2Cl)c1CN1CCCC1` have?
< 3.52

Lab note: need pEC50 with UniProt P49841 for entry `OCCCNc1cc(-c2ccnc(Nc3cccc(Cl)c3)n2)ccn1` , please look it up.
6.67

Quick check: pEC50 on UniProt P49841, item `COc1ccc(C(=O)/C=C2/C(=O)Nc3ccccc32)c(OC)c1` ?
< 3.52

Lookup: pEC50 / UniProt P49841 / `Cc1cccc(-n2c(=O)c3c4c(sc3n3c(=S)[nH]nc23)CCC4)c1`
4.31

Form field: pEC50 recorded for `Nc1ncc(-c2ccccc2)c(-c2ccc(O)cc2O)n1` with UniProt P49841 (enter value)
5.11

Request body: readout pEC50, system UniProt P49841, query `O=C(O)/C=C/c1cccc2c1OCCO2` . Return the value.
< 3.52

Tell me reported pEC50 for COc1c(CC=C(C)C)cc(C2CC(=O)c3c(O)cc(O)cc3O2)c(CC=C(C)C)c1O (stereo unspecified) , tested with UniProt P49841.
< 3.52
